test system: DU-145 prostate; assay: NCI-60 one-dose screen, 48 h; settings: 10 µM unless noted
The panel holds about 83,000 compounds, 20% with a hit somewhere; the sample as a whole holds those more often. Active and inactive are the calls of the source. Rule for the calls: active = growth percent below 10; inactive = the rest.
Outcomes: active, inactive

1. COc1ccc(/C(C)=C(\c2ccc(Cl)cc2)c2ccc(OCCN3CCCCCC3)cc2)cc1    inactive
2. NC(=O)N1N=C(c2ccc(Cl)cc2)CC1c1cn(-c2ccccc2)nc1-c1ccc(Cl)cc1 (configuration not stated)    inactive
3. COc1cc2ncnc(Nc3ccc(F)c(Cl)c3)c2cc1NC(=O)/C=C/CN1CCCCC1    active
4. CC(=O)c1c(C)c2cnc(Nc3ccc(N4CCNCC4)cn3)nc2n(C2CCCC2)c1=O    inactive
5. COc1cnc2c(c1)C(=O)c1c-2n(CCCN2CCC(N)CC2)c(=O)c2cc([N+](=O)[O-])ccc12    inactive
6. NC(=O)Nc1cc(-c2cccc(F)c2)sc1C(=O)N[C@H]1CCCNC1    active
7. COC[C@@H](C)n1c(C2CCOCC2)nc2c1C1C=C(OC)C(c3c(C)noc3C)=CC1N=C2 (some centres not stated)    inactive
8. N#Cc1ccc(-n2nnc3ccccc32)cc1C#N    inactive
9. CCN1CCN(c2cc(C)nc(N(CCCNc3ccnc4cc(Cl)ccc34)Cc3cccs3)n2)CC1    inactive
10. COc1ccc2c(OCc3nnc4ccc(-c5ccccc5)nn34)ccnc2c1    inactive
11. COc1cc2cc(NCc3ccc(Cl)cc3)nc(C)c2cc1OC    inactive
12. CCN(CC)c1cc2oc3cc(N)cc(=N)c-3nc2cc1C    inactive
13. COc1ccc2c(CCCCC(c3ccccc3)c3ccccc3)c3[n+](cc2c1OC)CCc1cc2c(cc1-3)OCO2    active
14. O=C1CSC(c2c(F)cccc2Cl)N1NC(=O)C(O)(c1ccccc1)c1ccccc1 (configuration not stated)    inactive
15. Cn1ccnc1C(=O)/C=C/c1ccc(CC(=O)Nc2ccc(C(F)(F)F)cc2)cc1    active
16. COc1cc2nccc(Oc3ccc(NC(=O)C4(C(=O)Nc5ccc(F)cc5)CC4)cc3)c2cc1OC    inactive
17. CNC(=O)c1cc(Oc2cccc3nc(Nc4ccc(Cl)c(F)c4)ccc23)ccn1    inactive
18. c1cn2cc(-c3ccc4cn[nH]c4c3)nc(Nc3ccc(N4CCOCC4)cc3)c2n1    inactive
19. CC(C)[C@@H](C)/C=C/[C@@H](C)[C@H]1CCC2=C3C=CC4=CC(=O)CC[C@]4(C)[C@H]3CC[C@@]21C    inactive
20. O=C(/C=C/c1ccc2c(c1)OCO2)c1c(O)c2ccccc2oc1=O    inactive
21. O=C(c1c(F)ccc(NS(=O)(=O)N2CC[C@@H](F)C2)c1F)c1c[nH]c2ncc(-c3cnc(C4CC4)nc3)cc12    inactive
22. COc1ccc(COc2cc3oc(=O)c4cc(C(C)O)ccc4c3cc2OC)cc1 (configuration not stated)    inactive
23. COc1cc2c(cc1OCCCCN1CCN(CC(=O)Nc3ccc(Cl)cc3C(=O)c3ccccc3Cl)CC1)N=CC1CCCN1C2=O (configuration not stated)    active
24. Clc1nc(Cl)c2ncn(C/C=C\Cn3cnc4c(Cl)nc(Cl)nc43)c2n1    active
25. C=C1C[C@H](O)[C@H](Br)C(C)(C)[C@@]12CCC(C)=C(Cl)C2    inactive
26. Clc1ccc2c(NCCNc3nc(N4CCCC4)nc4ccccc34)ccnc2c1    active
27. CCCCCCC1(/C=N/NC(N)=O)NC(=O)NC1=O (configuration not stated)    inactive
28. O=C(NOC[C@H](O)CO)c1ccc(F)c(F)c1Nc1ccc(I)cc1F    inactive
29. Cc1cccc(Cl)c1NC(=O)c1cnc(Nc2cc(N3CCOCC3)cc(N3CCOCC3)c2)s1    active
30. C=CC[n+]1c(/C=C2\Sc3ccccc3N2C)sc(-c2ccccc2)c1-c1ccccc1    inactive
31. CCn1cc(-c2ccnc3[nH]c(-c4cccc(CN(C)C)c4)cc23)c(-c2ccc(NC(=O)N(C)C)cc2)n1    inactive
32. C/C=C/C=N/NC(=S)Nc1ccccc1    inactive
33. Nc1nc(=S)c2ncn(C3OC(COC(=O)c4ccc(Cl)cc4)C(OC(=O)c4ccc(Cl)cc4)C3OC(=O)c3ccc(Cl)cc3)c2[nH]1 (configuration not stated)    inactive
34. CC1(O)CCC2CC3OC3(C)CCC3OC3(C)C(O)CC1C2(C)C (configuration not stated)    inactive
35. COc1cc(C2CC(c3ccc(Cl)cc3)=NN2c2ccc(Cl)cc2)cc(OC)c1OC (configuration not stated)    inactive
36. CO[C@H]1C[C@@H]2CC[C@@H](C)[C@@](O)(O2)C(=O)C(=O)N2CCCC[C@H]2C(=O)O[C@H]([C@H](C)C[C@@H]2CC[C@@H](OCCO)[C@H](OC)C2)CC(=O)[C@H](C)/C=C(\C)[C@@H](O)[C@H](OC)C(=O)[C@H](C)C[C@H](C)\C=C/C=C/C=C/1C    inactive
37. Cc1ccc(-c2nc3ccc(Cl)cn3c2NC2CCCCC2)o1    inactive
